Source: ChEMBL document CHEMBL4513216

Test system: Plasmodium berghei
Test: Screen against P. berghei liver stage (PbLuc), transformed with Luciferase, at 10uM
Type: functional, HepG2
Settings: tested at 10 uM
Among all 69,000 compounds or so, about 8,600 (12%) showed an effect of 50% or more. What follows is part of a selection rich in strong results, with near analogues and random picks from the rest.
Mark each entry criterion met if its INHIBITION sits below 30%, and criterion not met for all others.

Illustrative cases are given below, each with its answer.
O=c1c2cnc(N3CCCCC3)nc2ccn1-c1ccccc1F    criterion met
CC1CCN(c2ncc(-c3ccccc3F)c(-c3nccn3C)n2)CC1    criterion not met

# strict comparison: is reported INHIBITION < 30%? input = COCCCNc1ncc(-c2cccc(F)c2)c(-c2nccn2C)n1
criterion met

Please do the same for CC1CCCN(c2ncc(-c3ccccc3F)c(-c3nccn3C)n2)C1 (stereo unspecified) as well.
criterion not met

Please do the same for CN1CCCC(c2cccc(-c3ccccc3F)n2)C1 (stereo unspecified) as well.
criterion not met

Please do the same for CCN1CCOCC2(CCCN(C(=O)c3conc3C)C2)C1 (stereo unspecified) as well.
criterion met

----------
System: Plasmodium berghei
Experiment: Screen against P. berghei liver stage (PbLuc), transformed with Luciferase, at 10uM
Type: functional, HepG2
Conditions: tested at 10 uM
About 8,600 (12%) of roughly 69,000 compounds showed an effect of 50% or more. The sample holds strong results, similar compounds and a random draw of the others, so the mix is not that of the screen.
# key: entry, value: INHIBITION
Response body: numeric value in %, unit text excluded.

Example entries and their recorded answers appear below.
CCCC(=O)NCc1cccc(C(=O)OC)c1    51.4
NC(=O)C1CCN(CC(=O)N(Cc2ccccc2)Cc2nccs2)CC1    2.15
COc1c(C)cnc(CN2CCn3c(C)nnc3C2)c1C    -7.53
CC1c2ncc(COc3cccnc3)n2CCN1C(=O)C1=CCCC1 (configuration not stated)    -7.11
COc1cccc(S(=O)(=O)NC(=O)COC2CCCCC2)c1    1.78
COC(=O)c1cccc(CNC(=O)CC(F)(F)F)c1    51.4
COc1ccc(CC2(CO)CCN(c3cc(C#N)ccn3)CC2)cc1    1.74
N#Cc1ccccc1N1CCCN(C(=O)CCc2ccsc2)CC1    19.2

Which INHIBITION reading was recorded for the molecule CCC(NC(=O)c1cc(OC)c2c(c1)OCCO2)c1cccs1 (configuration not stated) ?
24.3

Please do the same for Cc1ccc(CN2CCC[C@]3(C(=O)O)CN(c4ncccn4)C[C@@H]3C2)o1 as well.
15.9

Please do the same for COC(=O)c1cccc(CNC(=O)c2cc(C(C)C)n(C)n2)c1 as well.
-55.1

Please do the same for Cc1cc(NC(=O)CN2CCCC2c2c(C)nn(C)c2Cl)on1 (configuration not stated) as well.
-27.9

----------
Test system: Plasmodium berghei
Test: Screen against P. berghei liver stage (PbLuc), transformed with Luciferase, at 10uM
Assay type: functional, HepG2
Conditions: tested at 10 uM
Hit rate of the full screen: of about 69,000 compounds, about 8,600 (12%) showed an effect of 50% or more. Shown is part of a subset that was picked to be rich in strong results.
# key: entry, value: INHIBITION
I'd appreciate it if you wrote the number followed by its unit.

Example entries and their recorded answers appear below.
NC(=O)C1CN(c2ccc3cc(Br)ccc3n2)CCO1 (centres undefined)    37.1%
NC(=O)c1cccc(CS(=O)(=O)CC(O)Cn2cccn2)c1 (centres undefined)    4.41%
Cc1ccc2c(C(=O)N(C)C)cc(-c3cnn(CCO)c3)nc2c1C    31.15%
N#Cc1ccc(F)c(CN2CCCCC2Cn2cccn2)c1 (centres undefined)    -36.1%
O=C1CC[C@H]2CN(Cc3ccc(Cl)s3)CC[C@H]2N1CCc1c[nH]cn1    78.5%

Which INHIBITION reading was recorded for the compound CN(C(=O)NCCN1CCOCC1)C1CCN(c2ccccc2)C1=O (centres undefined) ?
13.375%

----------
Test system: Plasmodium berghei
Assay: Screen against P. berghei liver stage (PbLuc), transformed with Luciferase, at 10uM
Assay type: functional, HepG2
Details: tested at 10 uM
In all, about 69,000 compounds went through this assay and about 8,600 (12%) showed an effect of 50% or more. This excerpt belongs to a sample that is enriched for strong results.
Mark each entry True if its INHIBITION sits below 10%, and False for all others.

CCOCCN1CCN(CC2(O)CCCCC2)CC1    False
CCOCCN1CCN(CCC(=O)N2CCCCC2)CC1C (configuration not stated)    True
Cc1ccccc1Cc1nc(CSc2nnc(N)n2C)no1    False

# strict comparison: is reported INHIBITION < 10%? input = Cn1ccnc1Sc1ccc(S(N)(=O)=O)cn1
True

Please do the same for Cc1cc(-c2cncnc2)nc(C2CCCN2S(C)(=O)=O)n1 (configuration not stated) as well.
False

Please do the same for Cc1cc(N2CCC(Cc3cnccn3)C2)ncn1 (configuration not stated) as well.
True

Please do the same for CCOCCN1CCN(CCC(=O)N2CCCCC2)CC1 as well.
False

----------
System: Plasmodium berghei
Test: Screen against P. berghei liver stage (PbLuc), transformed with Luciferase, at 10uM
Assay type: functional, HepG2
Details: tested at 10 uM
Out of some 69,000 compounds screened, about 8,600 (12%) showed an effect of 50% or more. Many of the other results were omitted from the sample, so strong results are more common in it than they were.
Mark each entry YES if its INHIBITION sits below 30%, and NO for all others.

Illustrative cases are given below, each with its answer.
CO[C@H]1CCN(Cc2c(C)noc2C)[C@@H]2CN(Cc3cccnc3)C[C@H]12    YES
CCO[C@H]1CC[C@H]2[C@H]1OCCN2C(=O)c1nn(C)c2ccccc12    NO
O=C(COc1ccc(F)cc1)N1CCO[C@H]2[C@@H](OCC3CC3)CC[C@@H]21    NO
CO[C@@H]1CC[C@H]2[C@H]1OCCN2C(=O)COc1ccc(C)cc1    NO

Now turn to the next molecule.
# strict comparison: is reported INHIBITION < 30%? input = CCO[C@H]1CC[C@H]2[C@H]1OCCN2C(=O)COc1ccccc1
NO

----------
# key: entry, value: INHIBITION
Tested on: Plasmodium berghei
Experiment: Screen against P. berghei liver stage (PbLuc), transformed with Luciferase, at 10uM
Assay type: functional, HepG2
Conditions: tested at 10 uM
Screen size: about 69,000 compounds; about 8,600 (12%) showed an effect of 50% or more. What follows is part of a selection rich in strong results, with near analogues and random picks from the rest.
Response body: numeric value in %, unit text excluded.

Example entries and their recorded answers appear below.
CCN(CCCNC(=O)c1ccc(C)[nH]c1=O)S(C)(=O)=O    61
CN1CCCN(C(=O)c2nc3c(o2)CN(S(C)(=O)=O)C3)CC1    41.2
CN(Cc1cn2c(n1)CN(C1CCOC1)CC2)Cc1ccco1 (centres undefined)    10
CCC(NC(=O)c1cc(CC(C)C)nn1C)c1cc(C)ccn1 (centres undefined)    -1.15
CCC(NC(=O)c1cc(CC(C)C)nn1C)c1cccc(C)n1 (centres undefined)    86.7

Which INHIBITION reading was recorded for the compound COCCN1CC2(CCCN(C(=O)CCCc3cccs3)C2)CCC1=O (centres undefined) ?
25.1

Please do the same for CCN(CC)Cc1cc(=O)n2c(n1)CN(S(=O)(=O)C1CC1)CCC2 as well.
-3.26

Please do the same for O=C(NS(=O)(=O)c1ccccc1Cl)c1cccc2c1OCCO2 as well.
49

Please do the same for O=C(Nc1cccc(CNCc2cccs2)c1)C1CC1 as well.
20.5

Please do the same for CCc1cccc(C)c1NC(=O)c1ccccc1N(C)S(C)(=O)=O as well.
25.8

----------
# key: entry, value: INHIBITION
Test system: Plasmodium berghei
Test: Screen against P. berghei liver stage (PbLuc), transformed with Luciferase, at 10uM
Format: functional, HepG2
Conditions: tested at 10 uM
Hit rate of the full screen: of about 69,000 compounds, about 8,600 (12%) showed an effect of 50% or more. The sample holds strong results, similar compounds and a random draw of the others, so the mix is not that of the screen.
I'd appreciate it if you wrote the number followed by its unit.

Which INHIBITION reading was recorded for the molecule O=C(CC1CC1)N1CCn2cc(Cn3cccn3)nc2C1 ?
42.7%

Please do the same for O=C(c1ccc[nH]1)N1CCn2cc(Cn3cccn3)nc2C1 as well.
74.2%

----------
System: Plasmodium berghei
Assay: Screen against P. berghei liver stage (PbLuc), transformed with Luciferase, at 10uM
Assay type: functional, HepG2
Settings: tested at 10 uM
In all, about 69,000 compounds went through this assay and about 8,600 (12%) showed an effect of 50% or more. This is one part of a sample in which strong results are shown more often than they occur.
Result Type: INHIBITION (%)
Response body: numeric value in %, unit text excluded.

CN(C)S(=O)(=O)c1ccc(-c2nc(C#N)c(NC(C)(C)C)o2)o1    16

Value wanted: INHIBITION (Plasmodium berghei) of entry Cc1ccc(F)cc1S(=O)(=O)NCc1cccnc1N(C)C
49.3

Please do the same for COc1cc(C)c(S(=O)(=O)NCc2cccnc2N(C)C)c(C)c1 as well.
61.7

Please do the same for Cc1nnc([C@@H]2CC[C@@H]3[C@@H](CCN3S(=O)(=O)c3cccnc3)O2)o1 as well.
14.2

Please do the same for CCc1cc(CNC(=O)c2cc(NC(=O)C(C)C)ccc2Cl)[nH]n1 as well.
21.2

Please do the same for Cc1cc(NC(=O)NCc2nccn2C)ccc1OC(C)C as well.
37.1

Please do the same for COc1cc(NC(=O)NCc2nccn2C)ccc1Br as well.
50.8

Please do the same for CN(C(=O)CN1CCC(NC(=O)c2cccs2)CC1)c1ccccc1 as well.
16.9

Please do the same for Cn1ccnc1CNC(=O)Nc1ccc(OC2CCC2)c(F)c1 as well.
18

Please do the same for COc1c(CNCc2nnc3n2CCCCC3)c(C)nn1C as well.
31.6

Please do the same for CN(C)C(=O)c1n[nH]c2c1CN(CC1CCCCC1)C2 as well.
25.6

Please do the same for O=C(Cn1cc(Cl)cn1)N1CCNC1=O as well.
45.9

Please do the same for COc1ccc(CC(=O)NC2(C#N)CCOCC2)c(Cl)c1 as well.
-8.4
